test_protocol: Quantitative High-Throughput drug screen in 47 multiple myeloma cell lines against the NCATS MIPE library collection: SKMM1_PLB cell viability assay (AID 1919863); also: nearly all actives have a fitted effect of over 35% in size
run_conditions: SKMM1 myeloma viability, CellTiter-Glo ATP, 48 h; active compounds read low
Results filed as inconclusive are left out.
# viability per record follows
measured_metric: viability (%)

compound | measured_metric | assay_result
CN(C)CCc1c[nH]c2ccc(Cn3cncn3)cc12 | viability | 127
COC(=O)C1=C(C)NC(C)=C(C(=O)OCCCN2CCC(c3ccccc3)(c3ccccc3)CC2)C1c1cccc([N+](=O)[O-])c1 (stereo unspecified) | viability | 122
COc1ccc(C2(C#N)CCC(C(=O)O)CC2)cc1OC1CCCC1 (stereo unspecified) | viability | 137
Nc1ccn([C@@H]2O[C@H](CO)[C@@H](O)C2O)c(=O)n1 (stereo partly specified) | viability | 123
Cc1cccc(C#Cc2ccccc2)n1 | viability | 120
N=C(N=C(N)N)N1CCOCC1 | viability | 125
O=C1NC(=O)C(c2ccccc2[N+](=O)[O-])=C1Nc1ccc(O)c(Cl)c1 | viability | 110
CC(C)[N+]1(C)[C@@H]2CC[C@H]1CC(OC(=O)C(CO)c1ccccc1)C2 (stereo partly specified) | viability | 150
Cc1cc(=O)oc2cc(O)ccc12 | viability | 114
Cc1cc2c(s1)Nc1ccccc1N=C2N1CCN(C)CC1 | viability | 120
CC(C)Oc1ccc2c(=O)c(-c3ccccc3)coc2c1 | viability | 100

###

test_protocol: Quantitative High-Throughput drug screen in 47 multiple myeloma cell lines against the NCATS MIPE library collection: FR4_PLB cell viability assay (AID 1918924; also: nearly all actives have a fitted effect of over 35% in size)
run_conditions: FR4_PLB myeloma cells viability, CellTiter-Glo ATP, 48 h; series mostly up to 45.8 µM
Records with an inconclusive call do not appear. Active and inactive are the calls of the source. The call rests on the fitted dose curve; in most records, active means well fitted cell-killing curve with a large enough effect; inconclusive means small, poorly fitted or top-dose-only effect, or effect the other way; inactive means no such curve, though single readings can be large or run the other way.
Outcome codes: active, inactive

molecule | class_assignment
CCC(C)(Oc1ccc(C2(c3ccc(OC(C)(CC)C(=O)O)cc3)CCCCC2)cc1)C(=O)O (stereo not drawn) | inactive
Clc1ccc2c(N3CCN(CCCN4CCN(c5ccnc6cc(Cl)ccc56)CC4)CC3)ccnc2c1 | inactive
CCN(CCO)CCCC(C)Nc1ccnc2cc(Cl)ccc12 (stereo not drawn) | inactive
O=C(NCCO[N+](=O)[O-])c1cccnc1 | inactive
CC1(C)C(=O)N(CCN2CCC(C(=O)c3ccc(F)cc3)CC2)c2ccccc21 | inactive
CCOC(=O)C1=C(O)C(=O)N(Cc2ccccc2)C1 | inactive
O=C(O)CCNC(=O)c1ccc(N=Nc2ccc(O)c(C(=O)O)c2)cc1 | inactive
O=c1cc(N2CCOCC2)oc2c(-c3ccccc3)cccc12 | active
Cc1ccc(C)c(OCCCC(C)(C)C(=O)O)c1 | inactive
Nc1ccn([C@@H]2O[C@H](CO)[C@@H](O)C2O)c(=O)n1 (stereo partly drawn) | inactive
Nc1nc(N)c(N=O)c(OCC2CCCCC2)n1 | active
CN(C)[C@@H](CCOc1cccc2ccccc12)c1ccccc1 | active
CCCCN(CCCC)CCC(O)c1cc2c(Cl)cc(Cl)cc2c2cc(C(F)(F)F)ccc12 (stereo not drawn) | active
CCOc1cc(CC(=O)N[C@@H](CC(C)C)c2ccccc2N2CCCCC2)ccc1C(=O)O | inactive
Cc1cc2c(s1)Nc1ccccc1N=C2N1CCN(C)CC1 | inactive
CNC[C@H](O)c1ccc(O)c(O)c1 | active
CN(C)c1ccc(O)c2c1C[C@H]1C[C@H]3[C@H](N(C)C)C(=O)C(C(N)=O)=C(O)[C@@]3(O)C(=O)C1=C2O | active
O=C1CCc2ccc(OCCCCN3CCN(c4cccc(Cl)c4Cl)CC3)cc2N1 | inactive
CC(=O)NC[C@H]1CN(c2ccc(N3CCOCC3)c(F)c2)C(=O)O1 | inactive
Cc1cccc(C#Cc2ccccc2)n1 | inactive
COc1cc(Nc2c(C#N)cnc3cc(OCCCN4CCN(C)CC4)c(OC)cc23)c(Cl)cc1Cl | active
Oc1ccc(OCc2ccccc2)cc1 | inactive
O=C(O)c1cccc(-c2noc(-c3ccccc3F)n2)c1 | inactive
O=C(NOCC1CC1)c1ccc(F)c(F)c1Nc1ccc(I)cc1Cl | active
CC(C)c1nc(CN(C)C(=O)N[C@H](C(=O)N[C@@H](Cc2ccccc2)C[C@H](O)[C@H](Cc2ccccc2)NC(=O)OCc2cncs2)C(C)C)cs1 | active
COc1ccc2cc([C@H](C)C(=O)O)ccc2c1 | inactive
O=C(NC(Cc1cc(=O)[nH]c2ccccc12)C(=O)O)c1ccc(Cl)cc1 (stereo not drawn) | inactive
NS(=O)(=O)c1cc(C(=O)O)c(NCc2ccco2)cc1Cl | inactive
O=C(OC1C[C@H]2CC[C@@H](C1)[N+]21CCCC1)C(O)(c1ccccc1)c1ccccc1 (stereo partly drawn) | inactive
CN(C)c1ccc2nc3ccc(=[N+](C)C)cc-3sc2c1 | active
CCOC(=O)c1c(C)n(C)c2ccc(O)cc12 | inactive
CC(S)C(=O)NCC(=O)O (stereo not drawn) | inactive
CCCCC(CC)COC(=O)C(C#N)=C(c1ccccc1)c1ccccc1 (stereo not drawn) | inactive
COC(=O)N[C@H](C(=O)N[C@@H](Cc1ccccc1)[C@@H](O)CN(Cc1ccc(-c2ccccn2)cc1)NC(=O)[C@@H](NC(=O)OC)C(C)(C)C)C(C)(C)C | inactive
Nc1nc(OCc2ccccc2)c2[nH]cnc2n1 | inactive
O=Nc1c(-c2c(O)[nH]c3cc(Br)ccc23)[nH]c2ccccc12 | inactive
Cc1cccc(CN2CCN(C(c3ccccc3)c3ccc(Cl)cc3)CC2)c1 (stereo not drawn) | inactive
COc1ccc(C2(C#N)CCC(C(=O)O)CC2)cc1OC1CCCC1 (stereo not drawn) | inactive
CC(=O)O[C@H]1C(=O)[C@@]2(C)C([C@H](OC(=O)c3ccccc3)[C@]3(O)C[C@H](OC(=O)[C@H](O)[C@@H](NC(=O)c4ccccc4)c4ccccc4)C(C)=C1C3(C)C)[C@]1(OC(C)=O)CO[C@@H]1C[C@@H]2O (stereo partly drawn) | inactive
NC(=NCc1ccccc1)NC(=O)c1nc(Cl)c(N)nc1N | inactive
O=C1c2c(O)cc(O)cc2OC(c2ccc(O)c(O)c2)C1O (stereo not drawn) | inactive
Oc1ccc2ccccc2c1SSc1c(O)ccc2ccccc12 | active
CN1C(C(=O)Nc2ccccn2)=C(O)c2sccc2S1(=O)=O | inactive

// data source = PubChem BioAssay (NCATS)
